Molecular target: SpHof1-3
Assay: SPOT peptide array binding signal intensity (averaged, normalized) (arbitrary units (background-subtracted, floor 0; scale differs between SH3 domains)); higher = stronger binding of the SH3 domain to the peptide
Answer false if SPOT peptide array binding signal intensity is under 400, and true if it is 400 or more.

> print(dat)
            binder  assigned.class
1  IHTRRPSSTSQYLIR            true
2  NSMRPPLLIPAATTK           false
3  RPVPPPPPMRTTTEG            true
4  SPLGAPPPPPHKDHL           false
5  RKNRAPPQRPRFNRE           false
6  LRWRHKFFLPAIAAI            true
7  VRVKKRPLIRPLNSS           false
